Each entry below lists one item and its recorded growth value.
System: HCT-15 colon
ASSAY_EXPLANATION: NCI-60 one-dose screen, 48 h (100 = growth as untreated, 0 = no growth, -100 = all killed)
REPORTED_CONDITIONS: 10 µM unless noted
This is part of a sample that, as a whole, favours compounds with a hit. Of some 83,000 tested, about 20% had one in any assay.
Answer format: numeric, % implied, no suffix.

Answered cases to consult:
COc1nc(Nc2cccc(C(F)(F)F)c2)nc(OC)n1 = 103
Cc1cc(=O)n(Nc2ccccc2)c(O)c1C#N = 112
CS(=O)CC(=N\O)/C(CS(C)=O)=N\O (stereo unspecified) = 99
CC(=O)O[C@H]1CC[C@]2(C)C3=C(C(=O)C[C@H]2C1(C)C)[C@]1(C)CC[C@H]([C@H](C)CCC(=O)O)[C@@]1(C)CC3=O = 95.5
O=C1C=C(c2ccccc2)C(O)(c2ccccc2)C1 (stereo unspecified) = 132

Query molecule follows.
Qu. Read the entry O=C(OCC1CCCO1)c1ccc([N+](=O)[O-])cc1 (stereo unspecified) and write its reported growth.
Ans. 104
